# Tested system: Corticosteroid-binding globulin (Homo sapiens) (UniProt P08185)
# Sequence (P08185 whole entry): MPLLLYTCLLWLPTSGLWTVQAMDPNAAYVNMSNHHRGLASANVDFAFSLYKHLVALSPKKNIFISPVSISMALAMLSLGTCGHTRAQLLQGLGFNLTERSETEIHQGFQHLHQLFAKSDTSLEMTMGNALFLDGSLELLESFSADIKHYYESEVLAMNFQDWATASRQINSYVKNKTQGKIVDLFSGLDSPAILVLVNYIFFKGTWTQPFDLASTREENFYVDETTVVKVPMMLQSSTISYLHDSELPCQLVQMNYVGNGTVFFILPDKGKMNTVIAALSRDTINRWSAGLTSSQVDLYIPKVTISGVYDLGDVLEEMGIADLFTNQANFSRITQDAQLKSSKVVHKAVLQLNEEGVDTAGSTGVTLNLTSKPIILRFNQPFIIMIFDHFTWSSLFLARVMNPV
Documented Log 1/K across a set of compounds
Measurement kind: Log 1/K

- Compound: "C[C@]12CCC(=O)C=C1CC[C@@H]1[C@@H]2CC[C@]2(C)C(=O)CC[C@@H]12"
  Numeric value: 5.76
- Compound: "CC(=O)[C@@]1(O)CC[C@H]2[C@@H]3CC=C4C[C@@H](O)CC[C@]4(C)[C@H]3CC[C@@]21C"
  Numeric value: 5
- Compound: "C[C@]12C=CC(=O)C=C1CC[C@@H]1[C@@H]2[C@@H](O)C[C@@]2(C)[C@H]1CC[C@]2(O)C(=O)CO"
  Numeric value: 7.51
- Compound: "C[C@]12CC[C@H]3[C@@H](CCC4=CC(=O)CC[C@@]43C)[C@@H]1CC[C@@H]2C(=O)CO"
  Numeric value: 7.65
- Compound: "C[C@]12CC[C@H]3[C@@H](CCC4=CC(=O)CC[C@@H]43)[C@@H]1CC[C@@H]2O"
  Numeric value: 6.14
- Compound: "C[C@]12C[C@H](O)[C@H]3[C@@H](CCC4=CC(=O)CC[C@@]43C)[C@@H]1CC[C@@H]2C(=O)CO"
  Numeric value: 7.88
- Compound: "CC(=O)OCC(=O)[C@@]1(O)CCC2C3CCC4=CC(=O)CC[C@]4(C)C3C(O)C[C@@]21C (stereo partly specified)"
  Numeric value: 7.55
- Compound: "CC(=O)[C@H]1CC[C@H]2[C@@H]3CCC4=CC(=O)CC[C@]4(C)[C@H]3C(=O)C[C@]12C"
  Numeric value: 6.78
- Compound: "CC(=O)[C@@]1(O)[C@H](O)C[C@H]2[C@@H]3CCC4=CC(=O)CC[C@]4(C)[C@H]3CC[C@@]21C"
  Numeric value: 6.25
- Compound: "C[C@]12CCC(=O)C=C1CC[C@@H]1[C@@H]2CC[C@@]2(C)[C@H]1CC[C@]2(O)C(=O)CO"
  Numeric value: 7.88
- Compound: "C[C@]12CC[C@H](O)C[C@@H]1CC[C@@H]1[C@@H]2CC[C@]2(C)[C@@H](O)CC[C@@H]12"
  Numeric value: 5
- Compound: "CC(=O)[C@H]1CC[C@H]2[C@@H]3CC=C4C[C@@H](O)CC[C@]4(C)[C@H]3CC[C@]12C"
  Numeric value: 5.22
- Compound: "CC(=O)[C@@]1(O)CC[C@H]2[C@@H]3CCC4=CC(=O)CC[C@]4(C)[C@H]3CC[C@@]21C"
  Numeric value: 7.74
- Compound: "C[C@@H]1C[C@@]2(C)C(=CC1=O)CCC1C3CCC(C(=O)CO)[C@@]3(C)CC(O)[C@@]12F (stereo partly specified)"
  Numeric value: 5.8
- Compound: "CC(=O)[C@@]1(C)CCC2C3CCC4=CC(=O)CC[C@]4(C)C3CC[C@@]21C (stereo partly specified)"
  Numeric value: 7.12
- Compound: "CC(=O)[C@H]1CC[C@H]2[C@@H]3CCC4=CC(=O)CC[C@@H]4[C@H]3CC[C@]12C"
  Numeric value: 6.82
- Compound: "C[C@]12CC[C@H](O)CC1=CC[C@@H]1[C@@H]2CC[C@]2(C)C(=O)CC[C@@H]12"
  Numeric value: 5
- Compound: "C[C@]12C[C@@H](O)[C@H]3[C@@H](CCC4=CC(=O)CC[C@@]43C)[C@@H]1CC[C@@H]2C(=O)CO"
  Numeric value: 7.2
- Compound: "C[C@]12CCC(=O)C=C1CC[C@@H]1[C@@H]2[C@@H](O)C[C@@]2(C)[C@H]1CC[C@]2(O)C(=O)CO"
  Numeric value: 7.88
- Compound: "C[C@]12CCC(=O)C=C1CC[C@@H]1[C@@H]2C(=O)C[C@@]2(C)[C@H]1CC[C@]2(O)C(=O)CO"
  Numeric value: 6.89
- Compound: "C[C@]12CC[C@@H]3c4ccc(O)cc4CC[C@H]3[C@@H]1C[C@@H](O)[C@H]2O"
  Numeric value: 5
